Here, each record is paired with measured melting point data.
Assay endpoint: melting point

Molecule	Recorded value
CCOc1ccccc1C(=O)Nc1c(OC)cccc1C(N)=O	177 to 179 °C
CCCCCCCCNC(=O)CP(=O)(O)O	142 to 143 °C
CC(C)NCC(O)COc1cccc(C2=NNC(=O)CC2)c1 (configuration not stated)	137 to 141 °C
COCC1CC2CCC13CN(CC1CC1)CCC31c3cccc(O)c3OC21 (configuration not stated)	128 to 129 °C
COc1ccc(I)cc1CCCO	68 to 70 °C
O=C(O)Cc1cc(Br)c2c(c1)CCC(C(F)(F)F)N2 (configuration not stated)	111 to 112 °C
NS(=O)(=O)OCCc1ccccn1	89 to 91 °C
Cc1nc(NC(=O)C(c2ccccc2)c2ccccc2)no1	153 °C
Cn1c(NO)cc(=O)n(C2CCCCC2)c1=O	153 to 155 °C
Cc1c(Cl)ccc2c1[nH]c1c(C(=O)NO)cccc12	200 °C
C=C(CC)C(=O)c1cc2c(c(Cl)c1Cl)OC(C(=O)O)C2 (configuration not stated)	148 °C
CNC(=O)N1CCN(C(=O)Cc2ccc(Cl)c(Cl)c2)C(CN2CCC(O)C2)C1 (configuration not stated)	57 °C

----------
# reported melting point; entries follow
Assay endpoint: melting point

Compound	Assay endpoint	Recorded value
COc1cc(OC)c(C(=O)CC(=O)c2cc(OC)c(OC)c(OC)c2)cc1OC	melting point	154 to 156 °C
COc1c(Cl)ccc(-c2cc(N)c(Cl)c(C(=O)NOCc3nnsc3Cl)n2)c1F	melting point	179 to 181 °C
COc1ccc(-c2c(C(=O)O)n(Cc3cc4c(cc3Cl)OCO4)c3ccccc23)cc1	melting point	189 to 190 °C
NC(=O)Cc1cnc(Nc2n[nH]c3ccc(-c4ncccc4Cl)cc23)s1	melting point	> 230 °C
CCOC(=O)N(c1cccc(C(F)(F)F)c1)c1ccccc1-n1nc(C(=O)O)nc1CCl	melting point	100 to 108 °C
O=C(Cc1ccccc1Nc1c(Cl)cccc1Cl)OCCc1ccccn1	melting point	67 to 68 °C
CCn1cccc(C2c3cc(C(=O)OC)ccc3OC(C)(C)C2O)c1=O (centres undefined)	melting point	120 °C
Cc1cc(C)nc(S(=O)(=O)Nc2c(Cl)ccc(C)c2Cl)n1	melting point	234 to 235 °C
COCC1CCCN1Cc1ccc(-c2cc3ncnc(Nc4ccc5[nH]ccc5c4)c3s2)cc1 (centres undefined)	melting point	161 to 177 °C

----------
Catalogue of melting point values
Assay endpoint: melting point

Compound	Assay endpoint	Recorded value
Cc1nnc2n1-c1ccc(Cl)cc1C(N1CC=CCC1)=NC2	melting point	192 to 194 °C
CCCCCCCCCCCCCCCCCCOc1cc(OCCCOc2ccc(O)cc2)cc(C(=O)OC)c1	melting point	85 to 88 °C
COC(=O)CCc1cc(N)c(O)c(C(C)(C)C)c1	melting point	108 to 109 °C
CC(C)(OCc1cc(-c2ccc(Cl)cc2)no1)C(=O)N1CCCCC1	melting point	239 to 242 °C
C[C@@H]1S[C@@H](C(=O)Nc2ccc(CN3C(=O)CCCC3=O)cc2)Cc2cc3c(cc2C1=O)OCO3	melting point	205 to 208 °C
CCCN(CCC)c1nccc2ccc(C(=O)N[C@@H](Cc3cc(F)cc(F)c3)[C@H](O)CNCc3cccc(CC)c3)cc12	melting point	142 to 151 °C
CCCOC(=O)Nc1ccc(NCc2cc(Cl)cc(Cl)c2)cc1N	melting point	154 to 155 °C
CC(C)[C@H](NC(=O)N(C)Cc1nc2ccccc2[nH]1)C(=O)N[C@@H](Cc1ccccc1)[C@@H](O)C[C@H](Cc1ccccc1)NC(=O)OCc1cccnc1	melting point	110 to 114 °C
Nc1nc2c(c(N3CCNCC3)n1)SCCC2	melting point	176 to 178 °C
CSC1=Nc2ccccc2Sc2nccn21	melting point	116 to 118 °C
O=C1O[C@@H](c2ccc(F)cc2)[C@@H](Cc2ccc(C(F)(F)F)cc2)N1Cc1cccc2ccccc12 (racemic)	melting point	136 to 137 °C
O=C(CCCc1ccccc1)NCC(=O)N1c2ccccc2N(Cc2ccccc2)C(=O)[C@H]2CCC[C@H]21 (relative stereo)	melting point	219 to 221 °C
CCOC(=O)/C(=C\Nc1cc(OC)ccc1OC)c1ccc(OC)cc1	melting point	65 to 66 °C
Cc1cc(-c2nc(-c3ccc(OC(F)(F)F)cc3)no2)nn1Cc1ccnc(N2CCN(C3CC3)CC2)c1	melting point	140 °C
O=Cc1cn(-c2ccccc2)nc1OCc1ccccc1	melting point	153 to 154 °C
CCCCCCCCCCCCCCOCC(C)(O)CNCCO (centres undefined)	melting point	49.1 to 50.2 °C
CNc1coc2cc(NS(C)(=O)=O)c(Oc3ccccc3)cc2c1=O	melting point	192 to 193 °C
COc1cc(N(C)C)nc(N2CCN(Cc3ccc(CNC(C)=O)cc3)CC2)n1	melting point	115 to 118 °C
OC1CSC(Oc2cccc(-c3cccs3)c2)C(O)C1O (centres undefined)	melting point	165 to 166 °C

----------
Compound	melting point
C=CCOc1ccc(CC(=O)NCCCC)cc1	87 to 89 °C
CC1(C)CCC(C)(C)c2cc(C3(c4ccc(C(=O)O)cc4)OCCO3)c(OCc3ccccc3)cc21	222 to 228 °C
COc1cc(CO)c(OC)c2ccccc12	63 to 66 °C
CCOC(=O)C1=C(C)N=C(N)C(C)(C(=O)OCC)C1c1ccccc1 (configuration not stated)	139 °C
O=C(c1ccc(Cl)cc1)C1(Oc2ccc(Cl)cc2)CC1	69 to 71 °C
CC(C)(C)n1ncc(OCc2ccc(OC(F)(F)C(F)OC(F)(F)F)cc2)c(Cl)c1=O (configuration not stated)	68 to 69 °C
Nc1ccc(S(=O)(=O)c2ccnc(N3CCCC3)c2)cc1	186 to 187 °C
N=C(N)NCCCCCC(=O)Oc1ccc2cc(C(=N)N)ccc2c1	136 °C
O=[N+]([O-])c1ccc(CN2CCC(c3cc(-c4ccc(Cl)cc4)[nH]n3)CC2)cc1	187 to 190 °C
Cc1cc(N2C(=O)N(CCCCCCCCCSCCCC(F)(F)C(F)(F)F)C(C)(C)C2=O)ccc1NS(=O)(=O)NC(=O)OC(C)(C)C	122 to 124 °C
CCN(CC)S(=O)(=O)c1cc(Cl)c(Cl)c(Cl)c1SCCl	82 to 83 °C
CNC1=Nc2ccc(Br)cc2C(c2ccccc2)=NC1	234 to 235 °C
COC(=O)C(CSCc1ccc(OC)cc1)NC(=O)NCCCCC1CCSS1 (configuration not stated)	105 to 107 °C
CCCN(CCC)[C@H]1Cc2c[nH]c3ccc(-c4ccno4)c(c23)C1	126 to 127 °C
CC(=O)Nc1c([N+](=O)[O-])cnn1-c1c(F)cc(C(F)(F)F)cc1Cl	129 to 130 °C
CC(=O)N(c1ccccn1)c1ncc(Br)s1	132 to 138 °C
CCN(CC)P(N)(N)=S	54 to 58 °C
O=Cc1cn(Cc2ccc(OCc3csc(-c4ccccc4)n3)cc2)nc1-c1cccs1	115 to 116 °C
CC(C)NC(=O)OCC(=O)c1ccc(Cl)cc1	163 to 164 °C
COCCOc1ccc(N)cc1S(=O)(=O)O	> 250 °C
CCCCCCCCc1ccc(OCC(=O)Cn2cccn2)cc1	85 to 87 °C
COc1cccc2c1Oc1cc(SC)ccc1C2	112 to 114 °C

----------
Reported melting point values for a set of compounds
Assay endpoint: melting point

Compound	Recorded value
COC(=O)c1ccc2c(c1)OCCO2	43 to 45 °C
CCOC(=O)c1c(S)nc(-c2ccccc2)c([N+](=O)[O-])c1C(=O)OCC	129 to 132 °C
O=C(Nc1ccc(-n2nc(C(F)(F)F)cc2C(F)(F)F)cc1)C1CC1	204 to 205 °C
NC(C=C(CP(=O)(O)O)c1ccccc1)C(=O)O (stereo unspecified)	230 to 233 °C
COc1ccc2cccc(N)c2c1	134 to 136 °C
CSCCn1c(C)nc2c(N)nc3ccccc3c21	193 to 195 °C
COc1cccc(C(C(N)=O)(c2c(Cl)cncc2Cl)C2CCCC2)c1 (stereo unspecified)	106 to 107 °C
COc1ccc2[nH]c3cnc4c(c3c2c1)C(=O)CC(C)(C)C4	230 to 231 °C
Cc1ccc(S(=O)(=O)N2CCN(S(=O)(=O)c3ccc(C)cc3)CC(=O)NCC(C3CCCCC3)NC(=O)CN(S(=O)(=O)c3ccc(C)cc3)CC2)cc1 (stereo unspecified)	224 °C
O=C(Cn1nc(-c2ccccc2O)nc1-c1ccccc1O)NC(CO)CO	212 to 214 °C
OC(CNc1ccc(Cl)cc1)Cn1ccnc1 (stereo unspecified)	123 to 125 °C
CC(C)=CCC/C(C)=C/CSc1nc2cc(C(F)(F)F)ccc2[nH]1	106 to 108 °C
O=C1CCC(c2ccccc2)(c2ccccc2)[C@@H]2CN(C(=O)Cc3ccc(F)cc3)C[C@H]12 (racemic)	210 °C
COc1ccc(-c2cnc3c(-c4cc(-c5ccccc5)cs4)cnn3c2O)cc1Br	> 300 °C
CC1(C)Oc2ccc(C#N)cc2[C@@H](NC(=S)Nc2ccccc2)[C@@H]1O (relative stereo)	183 to 185 °C
COc1cccc(NC(=O)Nc2nc3nc(NCCCN4CCN(C)CC4)ncc3cc2-c2c(Cl)cccc2Cl)c1	87.5 to 92.5 °C
CCCCC1NC(C(=O)O)CS1 (mixture of isomers)	195 °C
Cn1nc2c(-c3ccc(Cl)cc3Cl)cccc2c1CCc1ncn[nH]1	92 to 116 °C
ClCc1cc(-c2ccccc2)no1	69 to 70 °C
O=C1N(Cc2nnc(-c3ccccc3)o2)c2ccccc2C12COc1cc3c(cc12)OCO3 (stereo unspecified)	151 to 153 °C
CCCn1c(=O)c2[nH]c(/C=C/c3ccc(OC)c(C)c3C)nc2n(CCC)c1=O	271 °C
CCNCc1ccc2nc(C)[nH]c(=O)c2c1	> 260 °C
COP(=O)(OC)C(O)c1ccccc1 (stereo unspecified)	85 to 86 °C
CCOc1cc2c(cc1OC)Cc1c([nH]cnc1=O)N2	318 to 320 °C
Cc1nccn1-c1nc(-c2ccc(Cl)cc2)c(CCCN2C(=O)COC2=O)o1	152 to 153 °C
CCOC(=O)C(C)(C)Oc1ccc(CNC(=O)c2sc(-c3ccc(C(C)C)cc3)nc2C)cc1C	129 to 131 °C
CC(=O)NC(=O)C(C)SC(C)=O (stereo unspecified)	91 to 93 °C
COc1cc(CCCN2CCc3cc(OC)c(OC)cc3C2)ccc1NC(=O)c1cccc2c(=O)c3cccc(OC)c3[nH]c12	188 °C
C1CNCCNCCOCCNCCN1	80 to 81 °C
NCCCn1cc(-c2cc3nccnc3[nH]2)c2ccccc21	170 °C
O=C(O)c1cc(S(=O)(=O)c2ccccc2)ccc1[N+](=O)[O-]	210 to 212 °C
CC(C)C1(C)NC(c2nc3ccccc3cc2C=O)=NC1=O (stereo unspecified)	226 to 227 °C
CN(C)C(=O)c1nc(-c2ccccc2)nc2c1c1ccc(Cl)cc1n2C	211 to 213 °C
CCCCCN1CC[C@@H](c2ccccc2Cl)[C@H](CO)C1 (racemic)	101 to 102 °C
CSc1ccc(-c2nn(Cc3ccc(Cl)cc3Cl)c(=S)cc2-c2ccc(F)cc2)cc1	154 °C
Oc1c(Cl)cc(-c2cnn3c(O)ncnc23)cc1Cl	> 300 °C
Nc1cccc(C(=O)Nc2nccn(-c3ccccc3)c2=O)c1	> 250 °C
CCCCCCCCCCCCCCOc1ccc(OC(=O)N(C)Cc2ccccn2)cc1	67 to 68 °C
CN1CCC(c2c(O)cc(O)c3c(=O)cc(-c4ccccc4Cl)oc23)C1C(=O)O (stereo unspecified)	295 to 297 °C
CCCCn1cnnc1S	67 to 69 °C
CC(C)(C)c1nc(-c2n[nH]c(=O)o2)nc(C(C)(C)C)c1O	230 to 232 °C
